TARGET_OR_SYSTEM: T1, human CD19 on Raji cells (human, UniProt P15391 20-556)
T1 construct: whole, on cells
T1 sequence (looked up): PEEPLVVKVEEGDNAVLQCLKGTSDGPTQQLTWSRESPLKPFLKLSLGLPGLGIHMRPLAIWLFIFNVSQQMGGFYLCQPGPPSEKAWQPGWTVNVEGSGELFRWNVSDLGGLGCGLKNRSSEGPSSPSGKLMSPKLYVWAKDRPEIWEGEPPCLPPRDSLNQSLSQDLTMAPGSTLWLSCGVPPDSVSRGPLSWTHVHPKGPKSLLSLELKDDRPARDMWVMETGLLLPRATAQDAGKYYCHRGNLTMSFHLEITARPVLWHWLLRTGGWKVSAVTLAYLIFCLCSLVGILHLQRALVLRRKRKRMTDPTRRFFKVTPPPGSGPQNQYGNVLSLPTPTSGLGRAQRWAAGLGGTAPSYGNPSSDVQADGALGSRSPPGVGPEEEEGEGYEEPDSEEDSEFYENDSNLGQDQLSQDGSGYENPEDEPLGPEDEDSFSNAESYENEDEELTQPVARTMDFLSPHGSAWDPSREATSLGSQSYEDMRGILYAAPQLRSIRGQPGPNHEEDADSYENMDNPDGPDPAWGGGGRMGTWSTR
EXPERIMENT_DESCRIPTION: FACS on Raji cells
MEASURE_NAME: pEC50
# reply with the number alone; pEC50 is -log10 of concentration in mol/L

Look over these answered cases.
| BINDER | RESULT_NUMBER |
| --- | --- |
| F3.114.12 (antibody, human IgG1, V domains shown, human-murine chimeric antibody, human IgG1) VH: DVQLQESGPGLVKPSQSLSLTCSVTGYSITSGYDWNWIRQFPGNKLEWMGYISYDGKNNYNPSLRNRISITRDTSKNQFFLKLNSVTTEDTATYYCARRDLRGYFDVWGTGTTVTVSS VL: DIVLTQSPATLSVTPGDRVSLSCRASQSISNYLHWYQQKSHESPRLLIKYASLSISGIPSRFSGSGSGTDFTLSINSVETEDFGVYFCQQSNSWPLTFGAGTKLELK | 8.48 |
| F4.125.12 (antibody, human IgG1, V domains shown, human-murine chimeric antibody, human IgG1) VH: EVKLVESGGGLVQPGGSLKLSCAASGFTFSTYTMSWVRQTPEKRLEWVAFISSGGGHINYPDTVKGRFTISRDNAKNTLYLQMSSLKSEDTAMYYCARHSYWFFDVWGAGTTVTVSS VL: DVQITQSPSYLAASPGETITINCRASKNIDTYLAWYQEKPGKTNKLLIYSGSTLQSGIPSRFRGGGSGTDFTLTICSLEPEDFAMYYCQQHNEYPLTFGAGTKLELK | 9.29 |

Entry F3.124.7 (antibody, human IgG1, V domains shown, human-murine chimeric antibody, human IgG1) VH: EVQLQQSGPVLVKPGASVKMSCKASGYTFTDYYMNWVKQRHGKSLEWIGISNPYNGGTSYNQKFKDKATLTVDKSSSTAYMELNSLTSEDSAVYYCAREGGTAQPTSGMDYWGQGTSVTVSS VL: NIMMTQSPSSLAVSAGEKVTMSCKSSQSVLYSSNQKNYLAWYQQKPGQSPKLLIYWASTRESGVPDRFTGSGSGTDFTLTISSVQPEDPAVYYCHQYRSSYTFGGGTKLEIK — recorded pEC50 = 8.61
